So I've got a bunch of compounds here, and I need their pIC50 values.
ASSAY_TARGET: mTOR (Homo sapiens, UniProt P42345)
Construct: FLAG; made in house
Sequence (P42345 1362-2549): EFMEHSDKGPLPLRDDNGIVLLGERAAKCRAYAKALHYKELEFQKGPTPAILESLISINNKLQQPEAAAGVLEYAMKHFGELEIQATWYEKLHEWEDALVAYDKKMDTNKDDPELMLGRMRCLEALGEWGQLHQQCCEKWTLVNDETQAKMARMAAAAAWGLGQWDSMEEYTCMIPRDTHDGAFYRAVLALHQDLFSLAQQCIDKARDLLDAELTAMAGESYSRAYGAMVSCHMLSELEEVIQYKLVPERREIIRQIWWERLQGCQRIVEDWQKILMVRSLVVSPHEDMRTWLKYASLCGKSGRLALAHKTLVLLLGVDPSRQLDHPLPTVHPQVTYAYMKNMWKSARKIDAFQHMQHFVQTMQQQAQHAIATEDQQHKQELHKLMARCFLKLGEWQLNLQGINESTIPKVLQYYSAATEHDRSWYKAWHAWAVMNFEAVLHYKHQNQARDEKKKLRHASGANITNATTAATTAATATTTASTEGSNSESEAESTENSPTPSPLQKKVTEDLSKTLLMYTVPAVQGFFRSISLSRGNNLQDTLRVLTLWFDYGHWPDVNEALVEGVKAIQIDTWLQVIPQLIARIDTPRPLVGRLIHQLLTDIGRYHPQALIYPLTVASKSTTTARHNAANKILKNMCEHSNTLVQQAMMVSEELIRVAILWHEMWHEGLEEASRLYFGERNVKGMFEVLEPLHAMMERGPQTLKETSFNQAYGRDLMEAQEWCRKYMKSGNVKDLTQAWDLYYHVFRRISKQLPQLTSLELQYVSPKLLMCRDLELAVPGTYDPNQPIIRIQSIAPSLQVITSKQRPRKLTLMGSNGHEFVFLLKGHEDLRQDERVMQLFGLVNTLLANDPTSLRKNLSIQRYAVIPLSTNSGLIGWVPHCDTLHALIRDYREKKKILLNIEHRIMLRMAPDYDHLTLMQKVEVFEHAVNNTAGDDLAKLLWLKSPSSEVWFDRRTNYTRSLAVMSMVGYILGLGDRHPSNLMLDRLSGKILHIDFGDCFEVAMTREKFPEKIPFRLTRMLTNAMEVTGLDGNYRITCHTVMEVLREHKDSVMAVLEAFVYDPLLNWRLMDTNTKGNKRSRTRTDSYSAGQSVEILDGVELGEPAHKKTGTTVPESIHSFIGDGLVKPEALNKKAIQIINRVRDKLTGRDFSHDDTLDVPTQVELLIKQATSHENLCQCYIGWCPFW
EXPERIMENTAL_DETAILS: In Vitro mTOR Kinase Assay (Echo), Test (a)(ii)
Format: biochemical
PARTICULARS: table of enzyme assay Test (a)(ii); read-out: Test (a)(ii) IC50
One number for each entry, as −log10 of the molar value.

These recorded examples may help you get a feel for the data.
| COMPOUND | ASSAY_TARGET | pIC50 |
| --- | --- | --- |
| C[C@H]1COCCN1c1cc(C2(S(=O)(=O)c3ccc(Cl)cc3)CC2)nc(-c2ccc(NC(=O)NC3CCC3)cc2)n1 [Example 27a] | mTOR (Homo sapiens, UniProt P42345) | 8.41 |
| C[C@H]1COCCN1c1cc(C2(S(=O)(=O)c3ccc(F)cc3)CC2)nc(-c2ccc(NC(=O)NC3CC3)nc2)n1 [Example 14i] | mTOR (Homo sapiens, UniProt P42345) | 7.47 |
| O=C(NCCO)Nc1ccc(-c2nc(N3CCOCC3)cc(C3(S(=O)(=O)C4CC4)CCCC3)n2)cc1 [Example 13l] | mTOR (Homo sapiens, UniProt P42345) | 7.97 |

Items follow; give pIC50 for each.
1. CCCNC(=O)Nc1ccc(-c2nc(N3CCOC[C@@H]3C)cc(C3(S(=O)(=O)CCCO)CCOCC3)n2)cc1 [Example 36cf]
2. C[C@H]1COCCN1c1cc(C2(S(=O)(=O)c3ccccn3)CCCC2)nc(-c2ccc(NC(=O)NCCO)cc2)n1 [Example 36ac]

stdout:
6.54
8.36

###

ASSAY_TARGET: mTOR (Homo sapiens, UniProt P42345)
Construct: FLAG; made in house
EXPERIMENTAL_DETAILS: In Vitro mTOR Kinase Assay (Echo), Test (a)(ii)
Type: biochemical
PARTICULARS: table of enzyme assay Test (a)(ii); read-out: Test (a)(ii) IC50
just bin them by IC50: bottom range (below 3 nM), center range (3 nM to below 10 nM), top range (10 nM or more)

| COMPOUND | CLASS |
| --- | --- |
| C[C@H]1COC[C@H](C)N1c1cc(C2(S(=O)(=O)c3ccccc3)CC2)nc(-c2ccc(NC(=O)NCCF)cc2)n1 [Example 93c] | bottom range |
| N#CCCNC(=O)Nc1ccc(-c2nc(N3CCOCC3)cc(C3(S(=O)(=O)c4ccccc4)CC3)n2)cc1 [Example 36dh] | center range |
| C[C@H]1COCCN1c1cc(C2(S(=O)(=O)c3ccccc3)CC2)nc(-c2ccc(NC(=S)NCc3ncc[nH]3)cc2)n1 [Example 37ac] | top range |
| Cc1csc(S(=O)(=O)C2(c3cc(N4CCOC[C@@H]4C)nc(-c4ccc(NC(=O)NCCN(C)C)cc4)n3)CC2)n1 [Example 25f] | top range |
| C[C@H]1COCCN1c1cc(C2(S(=O)(=O)C3CC3)CC2)nc(-c2ccc(NC(=S)NC3CC3)cc2)n1 [Example 37b] | top range |
| C[C@H]1COCCN1c1cc(C2(S(=O)(=O)C3CC3)CCC2)nc(-c2ccc(NC(=O)NC(C)(C)CO)cc2)n1 [Example 64w] | top range |
| COc1ccc(NC(=O)Nc2ccc(-c3nc(N4CCOC[C@@H]4C)cc(C4(S(C)(=O)=O)CC4)n3)cc2)cn1 | bottom range |
| C[C@H]1COCCN1c1cc(C2(S(=O)(=O)c3ccc(F)c(Cl)c3)CC2)nc(-c2ccc(NC(=O)NCCO)cc2)n1 [Example 95c] | center range |
| CNC(=S)Nc1ccc(-c2nc(N3CCOC[C@@H]3C)cc(C3(S(=O)(=O)c4ccccc4)CC3)n2)cc1 [Example 37ab] | center range |
| CC(C)(CO)NC(=O)Nc1ccc(-c2nc(N3CCOCC3)cc(C3(S(=O)(=O)C4CC4)CC3)n2)cc1 [Example 13e] | top range |

stdin: Exam item: assign CCNC(=O)Nc1ccc(-c2nc(N3CCOC[C@@H]3C)cc(C3(S(=O)(=O)CCCO)CC3)n2)cc1 [Example 31e] to the correct category.
stdout: bottom range

stdin: Pick a category. Item: C[C@H]1COCCN1c1cc(C2(S(=O)(=O)c3ccc(F)cc3)CC2)nc(-c2cnc(NC(=O)Nc3cnn(C)c3)nc2)n1 [Example 14h]
stdout: top range

These entries and their values trace back to patent US20090018134A1.
